tested on: MDA-MB-468; experiment: Cytotoxicity against human MDA-MB-468 cells assessed as cellular growth at 10 uM by SRB assay; type: functional
PROPERTY MEASURED: Activity (%)

>  <CPD SMILES>
Cc1c(OCC(=O)c2ccccc2)ccc2c1oc(=O)c1ccccc12

>  <TGT>
MDA-MB-468

>  <PROPERTY MEASURED>
Activity

>  <DISPLAY UNIT>
%

>  <EXPERIMENTAL RESULT>
62.01

$$$$
>  <CPD SMILES>
N#Cc1ccc(NC(=O)c2sc3nc4c(cc3c2N)C(=O)CCC4)cc1

>  <TGT>
MDA-MB-468

>  <PROPERTY MEASURED>
Activity

>  <DISPLAY UNIT>
%

>  <EXPERIMENTAL RESULT>
97.58

$$$$
>  <CPD SMILES>
O=c1/c(=C/c2ccccc2Cl)sc2nc(-c3ccccc3)nn12

>  <TGT>
MDA-MB-468

>  <PROPERTY MEASURED>
Activity

>  <DISPLAY UNIT>
%

>  <EXPERIMENTAL RESULT>
96.99

$$$$
>  <CPD SMILES>
Nc1c(C(=O)NCc2ccccc2)sc2nc3c(cc12)C(=O)CCC3

>  <TGT>
MDA-MB-468

>  <PROPERTY MEASURED>
Activity

>  <DISPLAY UNIT>
%

>  <EXPERIMENTAL RESULT>
116.37

$$$$
>  <CPD SMILES>
O=C(NCc1cccnc1)c1sc2cc([N+](=O)[O-])ccc2c1Cl

>  <TGT>
MDA-MB-468

>  <PROPERTY MEASURED>
Activity

>  <DISPLAY UNIT>
%

>  <EXPERIMENTAL RESULT>
106.53

$$$$
>  <CPD SMILES>
Nc1c(C(=O)Nc2ccccc2)sc2nc3c(cc12)C(=O)CCC3

>  <TGT>
MDA-MB-468

>  <PROPERTY MEASURED>
Activity

>  <DISPLAY UNIT>
%

>  <EXPERIMENTAL RESULT>
4.62

$$$$
>  <CPD SMILES>
COc1ccc(Cl)cc1C(=O)Nc1nc2ccc(Cl)cc2s1

>  <TGT>
MDA-MB-468

>  <PROPERTY MEASURED>
Activity

>  <DISPLAY UNIT>
%

>  <EXPERIMENTAL RESULT>
76.66

$$$$
>  <CPD SMILES>
CC1(C)CCc2cc(-c3ccn(S(=O)(=O)c4cccc(C(F)(F)F)c4)n3)ccc2O1

>  <TGT>
MDA-MB-468

>  <PROPERTY MEASURED>
Activity

>  <DISPLAY UNIT>
%

>  <EXPERIMENTAL RESULT>
67.07

$$$$
>  <CPD SMILES>
Nc1c(C(=O)Nc2ccccc2F)sc2nc3c(cc12)C(=O)CCC3

>  <TGT>
MDA-MB-468

>  <PROPERTY MEASURED>
Activity

>  <DISPLAY UNIT>
%

>  <EXPERIMENTAL RESULT>
-15.24

$$$$
>  <CPD SMILES>
Cc1cccc(-c2nc(-c3cccs3)no2)c1

>  <TGT>
MDA-MB-468

>  <PROPERTY MEASURED>
Activity

>  <DISPLAY UNIT>
%

>  <EXPERIMENTAL RESULT>
40.25

$$$$
>  <CPD SMILES>
Nc1c(C(=O)Nc2cccc(Cl)c2)sc2nc3c(cc12)C(=O)CCC3

>  <TGT>
MDA-MB-468

>  <PROPERTY MEASURED>
Activity

>  <DISPLAY UNIT>
%

>  <EXPERIMENTAL RESULT>
-10.56

$$$$
>  <CPD SMILES>
O=C(Nc1nc2ccc(Cl)cc2s1)c1ccc(Cl)cc1Cl

>  <TGT>
MDA-MB-468

>  <PROPERTY MEASURED>
Activity

>  <DISPLAY UNIT>
%

>  <EXPERIMENTAL RESULT>
105.42

$$$$
>  <CPD SMILES>
Cc1ccc(C(=O)/C=C2/Nc3ccc(C)cc3OC2=O)cc1

>  <TGT>
MDA-MB-468

>  <PROPERTY MEASURED>
Activity

>  <DISPLAY UNIT>
%

>  <EXPERIMENTAL RESULT>
112.98

$$$$

====

test system: U-251; assay: Cytotoxicity against human U251 cells assessed as cellular growth at 10 uM by SRB assay; type: functional
// reported Activity for each item listed
PROPERTY MEASURED: Activity

>  <CPD SMILES>
O=C(Nc1nc2ccc(Cl)cc2s1)c1ccc(Cl)cc1

>  <TGT>
U-251

>  <EXPERIMENTAL RESULT>
94.55%

$$$$
>  <CPD SMILES>
COc1ccc2nc(NC(=O)c3ccc(F)cc3)sc2c1

>  <TGT>
U-251

>  <EXPERIMENTAL RESULT>
98.75%

$$$$
>  <CPD SMILES>
N#Cc1ccc(-n2nnc3ccccc32)cc1C#N

>  <TGT>
U-251

>  <EXPERIMENTAL RESULT>
91.31%

$$$$
>  <CPD SMILES>
COc1ccc(S(=O)(=O)n2ccc(-c3ccc4c(c3)CCC(C)(C)O4)n2)cc1

>  <TGT>
U-251

>  <EXPERIMENTAL RESULT>
84.18%

$$$$
>  <CPD SMILES>
Cc1cccc(-c2nc(-c3cccs3)no2)c1

>  <TGT>
U-251

>  <EXPERIMENTAL RESULT>
82.28%

$$$$
>  <CPD SMILES>
CC1(C)CC(=O)c2cc3c(N)c(C(=O)Nc4ccc(Cl)cc4)sc3nc2C1

>  <TGT>
U-251

>  <EXPERIMENTAL RESULT>
103.14%

$$$$
>  <CPD SMILES>
O=C(NCc1cccnc1)c1sc2cc([N+](=O)[O-])ccc2c1Cl

>  <TGT>
U-251

>  <EXPERIMENTAL RESULT>
90.3%

$$$$
>  <CPD SMILES>
CC1(C)CC(=O)c2cc3c(N)c(C(=O)Nc4ccc(F)cc4)sc3nc2C1

>  <TGT>
U-251

>  <EXPERIMENTAL RESULT>
101.59%

$$$$
>  <CPD SMILES>
COc1ccc2[nH]c(C(=O)NCc3ccccc3)cc2c1

>  <TGT>
U-251

>  <EXPERIMENTAL RESULT>
98.45%

$$$$
>  <CPD SMILES>
Nc1c(C(=O)Nc2ccc(Cl)c(Cl)c2)sc2nc(-c3cccs3)ccc12

>  <TGT>
U-251

>  <EXPERIMENTAL RESULT>
83.86%

$$$$
>  <CPD SMILES>
Cc1ccc(C(=O)/C=C2/Nc3ccc(C)cc3OC2=O)cc1

>  <TGT>
U-251

>  <EXPERIMENTAL RESULT>
108.93%

$$$$
>  <CPD SMILES>
O=S(=O)(Oc1ccc(-c2cnc3ccccc3n2)cc1)c1ccccc1

>  <TGT>
U-251

>  <EXPERIMENTAL RESULT>
92.1%

$$$$
>  <CPD SMILES>
Cc1ccc(CNC(=O)c2[nH]c3ccccc3c2Cl)cc1

>  <TGT>
U-251

>  <EXPERIMENTAL RESULT>
92.16%

$$$$
>  <CPD SMILES>
COc1ccc(NC(=O)c2sc3nc4c(cc3c2N)C(=O)CCC4)cc1

>  <TGT>
U-251

>  <EXPERIMENTAL RESULT>
106.61%

$$$$
>  <CPD SMILES>
O=C(NCCc1ccccc1)c1[nH]c2ccccc2c1Cl

>  <TGT>
U-251

>  <EXPERIMENTAL RESULT>
92.92%

$$$$
>  <CPD SMILES>
O=C(NCCc1ccc(Cl)cc1)c1[nH]c2ccccc2c1Cl

>  <TGT>
U-251

>  <EXPERIMENTAL RESULT>
100.14%

$$$$
>  <CPD SMILES>
Cc1ccc(S(=O)(=O)Oc2ccc(-c3cnc4ccccc4n3)cc2)cc1

>  <TGT>
U-251

>  <EXPERIMENTAL RESULT>
89.92%

$$$$
>  <CPD SMILES>
O=c1/c(=C/c2ccc(Cl)cc2Cl)sc2nc(-c3ccccc3)nn12

>  <TGT>
U-251

>  <EXPERIMENTAL RESULT>
103.07%

$$$$
>  <CPD SMILES>
Nc1c(C(=O)Nc2cccc(Cl)c2)sc2nc3c(cc12)C(=O)CCC3

>  <TGT>
U-251

>  <EXPERIMENTAL RESULT>
46.41%

$$$$
>  <CPD SMILES>
Cc1ccccc1NC(=O)c1sc2nc3c(cc2c1N)C(=O)CCC3

>  <TGT>
U-251

>  <EXPERIMENTAL RESULT>
48.96%

$$$$
>  <CPD SMILES>
CC1(C)CC(=O)c2cc3c(N)c(C(=O)Nc4ccccc4Cl)sc3nc2C1

>  <TGT>
U-251

>  <EXPERIMENTAL RESULT>
102.37%

$$$$
>  <CPD SMILES>
O=S(=O)(Oc1ccc(-c2cnc3ccccc3n2)cc1)c1ccc2ccccc2c1

>  <TGT>
U-251

>  <EXPERIMENTAL RESULT>
104.05%

$$$$
>  <CPD SMILES>
O=C(NCc1ccc(Cl)cc1)c1[nH]c2ccccc2c1Cl

>  <TGT>
U-251

>  <EXPERIMENTAL RESULT>
105.3%

$$$$
